These data points were gathered from paper PMC5568661.

assay system: T1, Ets-1 ΔN301 (murine, UniProt P27577 301-440)
T1 sequence: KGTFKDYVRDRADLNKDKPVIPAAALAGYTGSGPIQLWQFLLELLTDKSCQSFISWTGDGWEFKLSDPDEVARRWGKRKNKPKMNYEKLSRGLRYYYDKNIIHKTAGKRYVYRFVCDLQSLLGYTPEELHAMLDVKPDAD
measurement description: NMR 15N-HSQC titration
assay readout: Kd

{"binder": "DNANSP15 (dsDNA) DNA 1: GATGCAGTGTAGTCG DNA 2: CGACTACACTGCATC", "assay readout": "Kd", "value observed": "< 10 µM"}
